Tested on: Es-2
Experiment: Primary qHTS to identify gynecologic anti-cancer compounds using libraries of approved drugs and bioactive compounds (AID 1345084); also: nearly all actives have a fitted effect of over 55% in size
Details: Gynecologic cancer cell panel viability, ATPlite luminescence, 48 h; series mostly up to 57.5 µM
Excerpt: National Center for Advancing Translational Sciences [NCATS] Assay Overview: Chemotherapeutic drug responses vary from cancer to cancer and from patient to patient. […] ATPlite is a luminescence based assay reliant on the conversion of a luciferase substrate to light in the presence of ATP. As a cytotoxic compound will suppress growth and decrease the number of cells, the concentration of ATP will decrease, and less light signal will be detected in the well. […]
Records with an inconclusive call do not appear. The source made the active and inactive calls. Calls follow the shape of the dose curve; as a rule, active = well fitted cell-killing curve with a large enough effect; inconclusive = small, poorly fitted or top-dose-only effect, or effect the other way; inactive = flat fitted curve, though single readings scatter.
Labels: active, inactive

COMPOUND	CATEGORY LABEL
CCN(CCNC(=O)Nc1ccccc1Br)c1cccc(C)c1	inactive
Cc1ccc(N2CCN(S(=O)(=O)N3CCCCC3)CC2)c(C)c1	inactive
Cc1cc2sc(NC(=O)Cc3ccccc3)nc2cc1Cl	inactive
O=c1nc(-c2ccccn2)sc2ccccc12	inactive
CC(=O)OC1CC(O)(C(C)C)C2C(OC(=O)c3ccc(O)cc3)C=C(C)C(=O)CC12C (stereo unspecified)	inactive
CO[C@@H]1[C@H](O)CCC2(CO2)[C@H]1[C@@]1(C)O[C@@H]1CC=C(C)C (stereo partly specified)	inactive
CN(C)CCCn1cc(C2=C(c3c[nH]c4ccccc34)C(=O)NC2=O)c2ccccc21	active
CCCCc1c(-c2ccc(OC)cc2)[nH]c2nccnc12	inactive
COc1cc(O)c2c(c1)/C=C/C[C@H](O)[C@H](O)C(=O)/C=C\C[C@H](C)OC2=O	active
O=C1C(Cc2ccc(O)cc2)N2C(=O)CCN(C(=O)NCc3ccccc3)C2CN1Cc1cccc2ccccc12 (stereo unspecified)	active
CC(=O)N1CCN(CCOc2ccc(C3CCN(C4=Nn5c(nnc5C(F)(F)F)CC4)CC3)cc2)CC1	inactive
Cc1nc(C#Cc2ccnc(Cl)c2)c(C)n1-c1ccc(F)cc1	inactive
Cc1cccc(-c2[nH]ncc2-c2ccc(F)c(-c3cnn(CCO)c3)c2)n1	inactive
Cc1[nH]c2ccccc2c1CCNCc1ccc(/C=C/C(=O)NO)cc1	active
CC(C)c1ccc(NC(=O)c2cccs2)c(-c2nc3ccccc3[nH]c2=O)c1	inactive
C=C1CC[C@@H]2[C@](C)(CO)[C@H](O)CC[C@@]2(C)[C@@H]1/C=C/C1=CCOC1=O	inactive
NCC1CCN(c2nccc(-c3ccc4ccccc4c3)n2)CC1	inactive
CC(C)(O)C(=O)N1CCN(c2ccc(C(F)(F)F)c(C3=C(c4c[nH]c5ccccc45)C(=O)NC3=O)c2)CC1	inactive
COC1C=C(C)C(O)(CO)C2(C)CCCC(C)(C)C12 (stereo unspecified)	inactive
Fc1ccc(-c2cncc(CN3CCN(c4cccc5c4OCCO5)CC3)c2)cc1	inactive
O=C(NC1CCC1)c1ccc(C#Cc2cccc(F)c2)nc1	inactive

----------
Test system: CRL-7250
Assay: Cytotoxic Profiling of Annotated Libraries Using Quantitative High-Throughput Screening (AID 1296008); also: nearly all actives have a fitted effect of over 60% in size; also: potency is read from the fitted curve at half-maximal effect
Conditions: Five cell lines viability, CellTiter-Glo ATP luminescence, 48-72 h
Records with an inconclusive call do not appear. The source made the active and inactive calls. Calls follow the shape of the dose curve; as a rule, active = well fitted inhibition curve with a large enough effect; inconclusive = small, poorly fitted or top-dose-only effect; inactive = flat fitted curve, though single readings scatter.

COMPOUND	EXPERIMENTAL TARGET	Potency
CNc1cccc(CCOc2ccc3c(c2)CN(CC(F)(F)F)C(=O)[C@H](CC(=O)O)C3)n1	CRL-7250	0.082 µM (active)
COC(=O)/C=C/C=C/C(=O)OC1C=C2COC(=O)C2(O)C2(C)CCCC(C)(C)C12 (stereo unspecified)	CRL-7250	inactive
C=CC(C)(O)CC/C=C(\C)C(=O)OC1C(O)C(CO)OC(OC(=O)C23CCC(C)(C)CC2C2=CCC4C5(C)CCC(OC6OC(COC7OCC(OC(C)=O)C(O)C7OC7OC(COC(C)=O)C(O)C(O)C7OC(C)=O)C(O)C(O)C6OC6OCC(O)C(O)C6O)C(C)(C)C5CCC4(C)C2(C)C(O)C3O)C1OC1OCC(OC2OCC(O)C(OC3OCC(O)C(O)C3O)C2O)C(O)C1O (stereo unspecified)	CRL-7250	0.891 µM (active)
COc1cc(CCc2cc(NC(=O)c3ccc(N4CC(C)NC(C)C4)cc3)n[nH]2)cc(OC)c1 (stereo unspecified)	CRL-7250	9.2 µM (active)
CCn1c(=O)n([C@H]2CCCN(c3nccc(-c4cc5ccccc5o4)n3)C2)c2ccccc21	CRL-7250	inactive
O=C(c1c(F)ccc(NS(=O)(=O)N2CC[C@@H](F)C2)c1F)c1c[nH]c2ncc(-c3cnc(C4CC4)nc3)cc12	CRL-7250	23.1 µM (active)

----------
Biological target: Catechol O-methyltransferase (Homo sapiens) (UniProt P21964)
Sequence (P21964 whole entry, looked up): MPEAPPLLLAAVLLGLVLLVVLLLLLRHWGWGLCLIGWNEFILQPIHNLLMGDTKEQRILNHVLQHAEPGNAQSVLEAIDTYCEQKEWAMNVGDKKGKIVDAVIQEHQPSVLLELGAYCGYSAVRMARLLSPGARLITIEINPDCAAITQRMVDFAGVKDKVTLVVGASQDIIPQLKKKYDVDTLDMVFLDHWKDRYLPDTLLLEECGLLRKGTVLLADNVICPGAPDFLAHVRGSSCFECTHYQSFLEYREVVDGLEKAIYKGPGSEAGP
Experiment: Confirmatory Screen for Target Class Profiling of Small Molecule Inhibitors of Methyltransferases (AID 1745852)
Conditions: MTase-Glo luminescence, SAH detection, recombinant enzyme; measured here: COMT max response; stronger effect = lower value
Threshold check on activity: strictly below -20% is met; on or above -20% is not met.

COMPOUND	CATEGORY LABEL
Cc1[nH]c2ccccc2c1CCNCc1ccc(/C=C/C(=O)NO)cc1	not met
O=C([C@@H]1CCCN(c2ccc3[nH]c(C4(n5cc(Cl)cn5)CC4)nc3n2)C1)N1CCCC1	not met
O=C(c1ccccc1)c1c(O)cc(O)cc1O[C@@H]1O[C@H](CO)[C@@H](O)[C@H](O)[C@H]1O	met
COc1ccc2nc3n[nH]c(C)c3c(NCCOCCO)c2c1	met
CC(C)(O)C(=O)N1CCN(c2ccc(C(F)(F)F)c(C3=C(c4c[nH]c5ccccc45)C(=O)NC3=O)c2)CC1	met
Cc1cc(C)cc(-c2cnc3cc(Cl)c(-c4cccc(O)c4)cc3c2OCCCN)c1	met
Cc1cc(N2CCOCC2)ccc1Nc1nc(NC2CCCCC2)c2[nH]cnc2n1	not met
Fc1ccc(N2CCCCC2)c(NC(=S)c2ccncc2)c1	not met
C=C1C(=O)OC2C1CCC1(C)C(O)CCC(=C)C21 (stereo not given)	met
O=C(c1ccc(Cl)cc1)N1CCN(c2ccnc3cc(Cl)ccc23)CC1	not met
CN(C)CCOC(C)(c1ccccc1)c1ccc(Cl)cc1 (stereo not given)	not met
Cc1c(OCc2cccc(-c3ccc(C(=O)O)cc3)c2)cc2c(c1C)C(=O)C(C1CCCC1)C2 (stereo not given)	not met
N#C/C(=C1\Nc2ccccc2S1)c1ccnc(NCCc2cccnc2)n1	met
CCOC(=O)c1cnc2ccc(-c3cncc(NS(=O)(=O)c4ccccc4)c3)cn12	met
COc1c2c(c(C)c3c1C(=O)OC3)O[C@@]1(C)C[C@@H](OC(C)=O)[C@]34O[C@](OC)(CC[C@]3(C)[C@H]1C2)OC4(C)C	not met
CC(C)(C)Sc1c(CC(C)(C)C(=O)O)n(Cc2ccc(Cl)cc2)c2ccc(OCc3ccc4ccccc4n3)cc12	not met
COc1cc2c(NC3CCN(C(C)C)CC3)nc(N3CCC(F)(F)CC3)nc2cc1OCCCN1CCCC1	not met
COc1cc(/C=C2\CCCN([C@@H](C)c3ccc(F)cc3)C2=O)ccc1-n1cnc(C)c1	not met
CC1(C)CCC(C)(C)c2cc(C#Cc3ccc(C(=O)O)cc3)ccc21	not met

----------
Reported activity change, negative = thiol reactive values for the following compounds.
Test: Primary fluorescence-based thiol-reactive (MSTI) qHTS assay for identification of artifact compounds. (AID 1845221);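 also: thiol-reactive compounds lower the probe fluorescence signal; nearly all actives have a fitted effect of over 65% in size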
Settings: MSTI thiol-reactivity probe, 1 h; series mostly up to 53.8 µM
Records with an inconclusive call do not appear. Calls of active or inactive are those of the source. Calls come from the whole dose curve; as a rule, active = well fitted inhibition curve with a large enough effect; inconclusive = small, poorly fitted or top-dose-only effect; inactive = no such curve, though single readings can be large or run the other way.
ASSAY READOUT: activity change, negative = thiol reactive

COMPOUND	TEST RESULT
CC1(C)CC[C@]23CO[C@@]4(CCC5[C@@]6(C)CC[C@H](O[C@@H]7OC[C@H](O[C@@H]8O[C@H](CO)[C@@H](O)[C@H](O)[C@H]8O[C@@H]8OC[C@@H](O)[C@H](O)[C@H]8O)[C@H](O)[C@H]7O)[C@@](C)(CO)C6CC[C@@]5(C)[C@]4(C)CC2=O)[C@@H]3C1 (some centres not stated)	249% [at 11.5 µM] (inactive)
C[C@H]1CC[C@@]2(OC1)O[C@H]1CC3[C@@H]4CC[C@@H]5C[C@@H](O[C@@H]6O[C@H](CO)[C@@H](O[C@@H]7O[C@H](CO[C@@H]8OC[C@@H](O)[C@H](O)[C@H]8O)[C@@H](O[C@@H]8O[C@H](CO)[C@H](O)[C@H](O)[C@H]8O)[C@H](O)[C@H]7O)[C@H](O)[C@H]6O)CC[C@]5(C)C4CC[C@]3(C)[C@H]1[C@@H]2C (some centres not stated)	133% [at 11.5 µM] (inactive)
CO[C@@H]1CC(OC2CCC3(C)C(CCC45CCC(C6=CC(=O)OC6)C(C)(CCC43)C5=O)C2)O[C@H](C)[C@@H]1O[C@@H]1O[C@H](CO[C@@H]2O[C@H](CO)[C@@H](O)[C@H](O)[C@H]2O)[C@@H](O)[C@H](O)[C@H]1O (some centres not stated)	-1.23% [at 11.5 µM] (inactive)
COC1CC(O[C@H]2CC[C@]3(C)C4CC[C@]5(C)C(C6=CC(=O)OC6)=CCC56OC46CC[C@@H]3C2)OC(C)C1O[C@@H]1O[C@H](CO[C@@H]2O[C@H](CO)[C@@H](O)[C@H](O)[C@H]2O)[C@@H](O)[C@H](O)[C@H]1O (some centres not stated)	101% [at 11.5 µM] (inactive)
CC(=O)O[C@@H]1[C@@H](O)[C@H](O[C@@H]2[C@@H](O)[C@@H](O)[C@H](O[C@H]3[C@H](O[C@H]4[C@H](O[C@H]5CC[C@@]6(C)C(CC[C@]7(C)C6CC=C6[C@@H]8CC(C)(C)CC[C@]8(C(=O)O)CC[C@]67C)[C@]5(C)CO)O[C@H](CO)[C@@H](O)[C@@H]4O)OC[C@@H](O)[C@@H]3O)O[C@H]2C)OC[C@H]1O (some centres not stated)	377% [at 11.5 µM] (inactive)
CC(=O)OC1CC(C)(C(=O)O)CC2C3=CC(=O)C4C5(C)CCC(OC6OC(C(=O)O)C(O)C(O)C6OC6OC(C(=O)O)C(O)C(O)C6O)C(C)(C)C5CCC4(C)C3(C)CCC12C (configuration not stated)	9.23% [at 11.5 µM] (inactive)
C=C1CO[C@@]2(O[C@H]3CC4C5CC=C6C[C@@H](O)C[C@@H](O[C@@H]7OC[C@H](O)[C@H](O[C@@H]8OC[C@@H](O)[C@H](O)[C@H]8O)[C@H]7O[C@@H]7O[C@@H](C)[C@H](OC(C)=O)[C@@H](OC(C)=O)[C@H]7OC(C)=O)[C@]6(C)C5CC[C@]4(C)[C@@H]3[C@@H]2C)[C@@H](O)[C@H]1OC1OC(C)C(O)C(O)C1O (some centres not stated)	69.1% [at 11.5 µM] (inactive)
